- Assayed target: HDAC4 catalytic domain L728A (UniProt P56524 648-1033, L728A)
- Sequence (P56524 648-1033 L728A): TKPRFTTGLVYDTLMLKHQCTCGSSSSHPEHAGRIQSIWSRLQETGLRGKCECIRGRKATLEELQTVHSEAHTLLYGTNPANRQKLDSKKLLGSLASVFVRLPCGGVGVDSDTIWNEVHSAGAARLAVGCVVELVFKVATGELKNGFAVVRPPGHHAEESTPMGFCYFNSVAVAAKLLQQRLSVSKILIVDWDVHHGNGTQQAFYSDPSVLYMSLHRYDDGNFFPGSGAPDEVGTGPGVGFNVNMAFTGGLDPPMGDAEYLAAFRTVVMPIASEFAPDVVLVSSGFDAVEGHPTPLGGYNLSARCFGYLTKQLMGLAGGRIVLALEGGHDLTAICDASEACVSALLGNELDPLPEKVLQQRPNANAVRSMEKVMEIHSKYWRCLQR
- Protocol details: FP
No end group written: not given here.
Readout name: Kd

GET /value?item= C(BODIPY‑TMR)PRPLKEGSITQGTPLKYDTG &field=Kd returns 4.59 µM

Every entry's value here was drawn from paper PMC4505066.
